# EXPERIMENT_SUMMARY: self-splicing fitness, log relative to wild type (ln ratio); higher = more splicing; Tetrahymena group I intron in knt gene, E. coli kanamycin selection, DiMSum; sequences stand for … in CUCUCU…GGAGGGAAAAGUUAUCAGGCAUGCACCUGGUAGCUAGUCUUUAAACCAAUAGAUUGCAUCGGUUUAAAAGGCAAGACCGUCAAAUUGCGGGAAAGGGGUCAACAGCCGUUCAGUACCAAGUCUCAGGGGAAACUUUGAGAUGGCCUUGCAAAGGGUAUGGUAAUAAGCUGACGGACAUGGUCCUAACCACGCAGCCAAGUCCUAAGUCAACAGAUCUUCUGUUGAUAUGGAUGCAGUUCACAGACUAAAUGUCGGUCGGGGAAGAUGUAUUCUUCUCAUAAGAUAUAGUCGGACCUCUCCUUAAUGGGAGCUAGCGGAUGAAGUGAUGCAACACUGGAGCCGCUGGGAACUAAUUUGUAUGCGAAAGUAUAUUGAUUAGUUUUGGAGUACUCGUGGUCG;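 further: selection with 25 µg/mL kanamycin versus none on LB agar overnight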
# TEST_CONDITIONS: 37 °C
READOUT_KIND: self-splicing fitness (ln)
Lab note: jot down the number only; don't add units.

Illustrative cases are given below, each with its answer.
Can you share its self-splicing fitness (ln)? I mean this sequence: "GCUCAGCAAUAUUACGGUGG"
-1.41

Can you share its self-splicing fitness (ln)? I mean this sequence: "GCCAAGCAAUAUUACGACUU"
-1.68

Can you share its self-splicing fitness (ln)? I mean this sequence: "AAGCAGCAAUAUUACGGUGC"
-1.61

New cases:
Can you share its self-splicing fitness (ln)? I mean this sequence: "GCAUAGCAAUAUUACGGUAG"
-3.01

Can you share its self-splicing fitness (ln)? I mean this sequence: "UCGUAGCAAUAUUACGAACG"
-1.94

Can you share its self-splicing fitness (ln)? I mean this sequence: "AACAAGCAAUAUUACGAUGC"
-0.922

Can you share its self-splicing fitness (ln)? I mean this sequence: "AAUUAGCAAUAUUACGGCAU"
0.351

Can you share its self-splicing fitness (ln)? I mean this sequence: "GUACAGCAAUAUUACGAUCA"
-0.392

Can you share its self-splicing fitness (ln)? I mean this sequence: "UCCAAGCAAUAUUACGUAAC"
-1.41

Can you share its self-splicing fitness (ln)? I mean this sequence: "AGUAAGCAAUAUUACGGCAC"
-0.545

Can you share its self-splicing fitness (ln)? I mean this sequence: "ACACAGCAAUAUUACGGGAC"
-2.12

* * *

# EXPERIMENT_SUMMARY: self-splicing fitness, log relative to wild type (ln ratio); higher = more splicing; Tetrahymena group I intron in knt gene, E. coli kanamycin selection, DiMSum; sequences stand for … in CUCUCU…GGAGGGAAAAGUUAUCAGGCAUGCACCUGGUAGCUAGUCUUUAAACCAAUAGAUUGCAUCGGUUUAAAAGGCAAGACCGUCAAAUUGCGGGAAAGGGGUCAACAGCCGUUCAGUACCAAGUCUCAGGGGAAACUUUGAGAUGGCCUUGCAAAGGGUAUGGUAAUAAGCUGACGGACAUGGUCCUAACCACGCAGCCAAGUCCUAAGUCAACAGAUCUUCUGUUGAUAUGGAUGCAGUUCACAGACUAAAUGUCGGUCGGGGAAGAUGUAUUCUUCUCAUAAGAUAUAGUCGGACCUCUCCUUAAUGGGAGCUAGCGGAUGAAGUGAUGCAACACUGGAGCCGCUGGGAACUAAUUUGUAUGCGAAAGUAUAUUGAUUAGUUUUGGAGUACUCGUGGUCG
# TEST_CONDITIONS: 30 °C
Label rule, in plain words: self-splicing fitness (ln) of -3 and up is label 1, under -3 is label 0.

Worked examples, 4 sequences total:
I'd appreciate it if you could say whether "CCUCAGCAAUAUUACGGUGG" has self-splicing fitness (ln) at least equal to -3.
label 0

I'd appreciate it if you could say whether "CGCCAGCAAUAUUACGCUUU" has self-splicing fitness (ln) at least equal to -3.
label 1

I'd appreciate it if you could say whether "UCCCAGCAAUAUUACGCUGC" has self-splicing fitness (ln) at least equal to -3.
label 0

I'd appreciate it if you could say whether "GCAGAGCAAUAUUACGCGUU" has self-splicing fitness (ln) at least equal to -3.
label 1

New cases:
I'd appreciate it if you could say whether "GCGUAGCAAUAUUACGCCUA" has self-splicing fitness (ln) at least equal to -3.
label 1

I'd appreciate it if you could say whether "GUCAAGCAAUAUUACGUUCU" has self-splicing fitness (ln) at least equal to -3.
label 1

I'd appreciate it if you could say whether "GCCUAGCAAUAUUACGCGAC" has self-splicing fitness (ln) at least equal to -3.
label 1

I'd appreciate it if you could say whether "UGGCAGCAAUAUUACGGGCA" has self-splicing fitness (ln) at least equal to -3.
label 1

I'd appreciate it if you could say whether "UUUUAGCAAUAUUACGGGUG" has self-splicing fitness (ln) at least equal to -3.
label 1

I'd appreciate it if you could say whether "UAAGAGCAAUAUUACGUUCA" has self-splicing fitness (ln) at least equal to -3.
label 1
